This collection of values is drawn from ChEMBL document CHEMBL3507680.

Experiment: Human HepG2 cell viability assay in 384 well format
Type: toxicity, cell-based
Set-up: dose 125 nL, time 70.5 hour; concentration not given beside the values
Conditions: HepG2 cells, read-out: Inhibition
Parameter: cytotoxicity at 70.5 h (%)
# unit: % | format: bare number

Worked set:
>>> result("COCc1noc(C2(c3ccc(Br)cc3)CCOCC2)n1")
-10.1
>>> result("CNC(=O)C(C)CN(C)C(=O)Nc1cc(F)cc(Br)c1 (configuration not stated)")
1.41
>>> result("CC(C)NC(=O)c1cc(Br)cc(S(=O)(=O)N2CCOCC2)c1F")
-0.805
>>> result("O=C(c1ccccn1)N1C[C@@H]2CC[C@H](C1)N(C(=O)Cc1cccs1)C2")
-10
>>> result("CCc1ccsc1C(=O)NC(C#N)CC (configuration not stated)")
-5.37

Can you look up the measured cytotoxicity at 70.5 h of Cc1cnn(C2CCCN(C(=O)Cc3cn4ccccc4n3)C2)c1 (configuration not stated) for me?
-12.4

Can you look up the measured cytotoxicity at 70.5 h of Cc1c(C2CC2)n[nH]c1NC(=O)C1CCCN(C(=O)NCC(C)C)C1 (configuration not stated) for me?
-4.52
